system: MCF7; assay: Cytotoxicity against human MCF7 cells after 96 hrs by MTT assay; assay type: functional, cell-based; settings: MCF7, 96 h
IC50 reference
Please respond with the number in µM and leave the unit unwritten.

Worked examples follow.
CC[C@@]1(O)C(=O)OCc2c1cc1n(c2=O)Cc2cc3c(CN(C)C)c(O)ccc3nc2-1: 1.8
COC(=O)c1c(O)cc(/C=C/c2ccc(O)c(O)c2)oc1=O: 143
CC1=CC(=O)C2(O1)C(c1cc3oc(=O)c4cc(O)c(O)cc4c3c(=O)o1)=Cc1cc(O)c(O)cc12 (stereo not given): 70

Please look at the following compound next.
GET /values?item= `O=c1oc2cc(/C=C/c3ccc(O)cc3)oc(=O)c2c2cc(O)c(O)cc12` &system= MCF7 returns IC50: 72

###

tested on: MCF7; assay: Cytotoxicity against human MCF7 cells after 96 hrs by MTT assay; assay type: functional, cell-based; settings: MCF7, 96 h
PARAMETER MEASURED: IC50 (µM)
Hi! Could you send only the number? It should be in µM, unit omitted.

Below, 4 compounds whose answers are already recorded.
O=c1oc2cc(/C=C/c3ccc(O)c(O)c3)oc(=O)c2c2cc(O)c(O)cc12 [PHELLIGRIDIN D]: 37
CC(=O)/C=C(O)/C=C/c1ccc(O)c(O)c1 [HISPOLON]: 25
CC(=O)/C=C/c1ccc(O)c(O)c1: 141
Cc1cc2oc(=O)c3cc(O)c(O)cc3c2c(=O)o1 [PHELLIGRIDIN A]: 109

API: the following record is the query input.
// COC1(CC(C)=O)Oc2cc(/C=C/c3ccc(O)c(O)c3)oc(=O)c2/C1=C/c1ccc(O)c(O)c1 (stereo not given) [PHELLIGRIDIN F] : IC50 value = 85
